Provide the reported pKa of each item.
- run-description: Dissociation constant, pKa of the compound
- Assay type: physicochemical
One number for each entry.

Look over these answered cases.
compound	pKa
CC(=O)N[C@@H](Cc1cc(F)cc(F)c1)[C@H](O)CNC1(c2cccc(C(C)(C)C)c2)CCC1	7.8
CC(=O)N[C@@H](Cc1cc(F)cc(F)c1)[C@H](O)CNC1(c2cccc(-n3cccn3)c2)CC1	6.7
CC(=O)N[C@@H](Cc1cc(F)cc(F)c1)[C@H](O)CNC1(c2cccc(C(C)(C)C(F)F)c2)CC1	6.7
CC(=O)N[C@@H](Cc1cc(F)cc(F)c1)[C@H](O)CNC1(c2cnn(CC(C)(C)C)c2)CC1	7.1
CC(=O)N[C@@H](Cc1cc(F)cc(F)c1)[C@H](O)CNC1(c2cccc(C(C)(C)C)c2)CCOCC1	7.2

Let us examine a further case.
Provide measured pKa value, entry: CC(=O)N[C@@H](Cc1cc(F)cc(F)c1)[C@H](O)CNC1(c2cccc(C3CCOC3)c2)CCCCC1 (stereo partly specified)
8.1
